# target_desc: HLA-A*31:01
# experiment: IEDB peptide-MHC binding, purified MHC/competitive/radioactivity; filed as Kd, often an IC50 or EC50 that approximates it; bounds were set here for any values at or beyond the usual limits of such assays
# details: source organism: Plasmodium falciparum 3D7
Listing of recorded Kd by entry.
Answer with a number only, understood to be in nM.

LFDKDTFFK : 5710
SSPLFNNFYK : 1610
KILIKIPVTK : 1660

Query block: Form field: reported Kd of YLINKHWQR
Result block: 4.4

Query block: Form field: reported Kd of LTNHLINTPK
Result block: 62

Query block: Form field: reported Kd of FSYDLRLNK
Result block: 461

Query block: Form field: reported Kd of LQMMNVNLQK
Result block: 435

Query block: Form field: reported Kd of ELFDKDTFFK
Result block: 3680

Query block: Form field: reported Kd of ILCIEGEQK
Result block: 7530

Query block: Form field: reported Kd of FISFYLINK
Result block: 2190

Query block: Form field: reported Kd of ALKISQLQK
Result block: 3200

Query block: Form field: reported Kd of TTRYKYLNK
Result block: 416

Query block: Form field: reported Kd of IFISFYLINK
Result block: 462

Query block: Form field: reported Kd of KSMLKELIK
Result block: 450

Query block: Form field: reported Kd of ALERLLSLK
Result block: 3430

Query block: Form field: reported Kd of HLNIPIGFK
Result block: 183

Query block: Form field: reported Kd of MQSSFFMNR
Result block: 29

Query block: Form field: reported Kd of RLPLLPKTWK
Result block: 340

Query block: Form field: reported Kd of EQRLPLLPK
Result block: 423

====

# target_desc: HLA-A*11:01
# experiment: IEDB peptide-MHC binding, purified MHC/competitive/radioactivity; filed as Kd, often an IC50 or EC50 that approximates it; bounds were set here for any values at or beyond the usual limits of such assays
# details: source organism: Plasmodium falciparum 3D7
Note to self: Kd under 600 nM means true, ties and anything higher get false.

YLFNQHIKK : true
PVVCSMEYK : true
LTNHLINTPK : true
FSYDLRLNK : true
KSMLKELIK : true
YLINKHWQR : false
ILCIEGEQK : false
TTRYKYLNK : false
SQDLACIFDA : false
TFLESSFDIK : false

Query block: Consider the sequence ALERLLSLK . Is its Kd strictly less than 600 nM?
Result block: true

====

# target_desc: HLA-A*30:02
# experiment: IEDB peptide-MHC binding, purified MHC/competitive/radioactivity; filed as Kd, often an IC50 or EC50 that approximates it; bounds were set here for any values at or beyond the usual limits of such assays
# details: source organism: Plasmodium falciparum 3D7
Listing of recorded Kd by entry.
Answer with a number only, understood to be in nM.

Illustrative cases are given below, each with its answer.
TYGIIVPVL : 1520
VSSIFISFY : 55
QAAESNERY : 3010
VYYNILIVL : 1130
RMTSLKNEL : 14

Query block: Form field: reported Kd of LNEQLIYTY
Result block: 4130

Query block: Form field: reported Kd of VYRHCEYIL
Result block: 3330
